All values here come from PubChem BioAssay (NCI).

Test system: MDA-MB-468 breast
Protocol text: NCI tumour cell line growth inhibition, 48 h; in the data active means GI50 below about 0.43 µM; inactive means the rest
Please state which outcome applies, choosing from 1.0 = active, 0.0 = inactive

Record lookup: outcome of this test for O=S(=O)(Nc1cc(F)cc(Cl)c1)c1ccc(-c2cnc(C3CC3)o2)cc1 ?
0.0

So what was the verdict on Cc1ccc(C(SCC(N)C(=O)O)(c2ccccc2)c2ccc(C)cc2)cc1 (stereo not given) in this test?
1.0

Dear colleague, could you share the recorded outcome for Oc1ccc(Cl)cc1Cc1cc(Cl)cc(Cl)c1O when you have a moment?
0.0

For CC(SC(C)C(=O)N/N=C/c1cccc(Cl)c1)C(=O)N/N=C\c1cccc(Cl)c1 (stereo not given) , what call appears in the results of this test?
0.0

Record request — test call for CC(C)(C)C(=O)OCOP(=O)(OCOC(=O)C(C)(C)C)C1CCCN(O)C1=O (stereo not given)
0.0

====

Would you kindly list TGI for each of these compounds?
Tested on: MDA-MB-468 breast
Protocol text: NCI tumour cell line growth inhibition, 48 h

MDA-MB-468 breast TGI of CC(C)(C)C(=O)OCOP(=O)(OCOC(=O)C(C)(C)C)C1CCCN(O)C1=O (centres undefined) is 5.48 µM

Case O=C1NC(=Nc2ccccc2)S/C1=C\c1ccc2ncccc2c1 , MDA-MB-468 breast, TGI recorded as > 25 µM

Entry CNCCCn1cc(C2=C(c3cn(C)c4ccccc34)C(=O)NC2=O)c2ccccc21 ; assay system MDA-MB-468 breast; TGI recorded at 7.33 µM

Considering C/C(=C\CCc1ccoc1)CC/C=C(\C)CCCC1=CC(=O)OC1 , its TGI with MDA-MB-468 breast was recorded as 8.41 µM

Value sought: TGI, system MDA-MB-468 breast, item C=C(F)C(=O)N1CCN(c2nc(OC[C@@H]3CCCN3C)nc3c2CCN(c2cccc4cccc(Cl)c24)C3)C[C@@H]1CC#N . Result: 2.58 µM

Entry O=C(OCc1ccc2cccc(O)c2n1)N1CCN(C(=O)c2cc3cc(F)ccc3[nH]2)CC1 under MDA-MB-468 breast had TGI of 3.28 µM

Simply: COc1cc(C2c3cc4c(cc3OC(N3CCCC3)C2C)OCO4)cc(OC)c1O (centres undefined) , MDA-MB-468 breast, TGI = > 100 µM

Given the compound COc1ccc(C(=O)c2cc(OC)c(C)c(OC)c2)cc1OC(=O)CCl and test system MDA-MB-468 breast, the measured TGI is 21.6 µM

Log: MDA-MB-468 breast, compound COc1ccc(N(C)c2ncnc3occ(C)c23)cc1 , TGI = 15.4 µM

CCOc1nc(-c2ccccc2)cc2c(O)c(-c3nnco3)[nH]c(=O)c12 tested on MDA-MB-468 breast gave TGI: > 25.8 µM

# TGI measured on MDA-MB-468 breast for item N/C(=N\c1nc2ccccc2s1)NC(=O)Nc1ccccc1Br = 1.66 µM

The compound NCCCNc1nc2ccccc2c2c(=O)c3cc(OC(F)(F)F)ccc3sc12 , tested on MDA-MB-468 breast, showed TGI of 3.42 µM

Case Cn1cc(C2=C(c3ccc4ccccc4c3)C(=O)NC2=O)c2ccccc21 , MDA-MB-468 breast, TGI recorded as > 25 µM

Record C=C(C=O)C1CCC2(C(=O)O)CCC3(C)C(CCC4C5(C)CCC(O)C(C)(C)C5CCC43C)C12 (centres undefined) / MDA-MB-468 breast, TGI recorded as 20.6 µM

TGI of O=[N+]([O-])c1ccc(C=C2C(Cl)=C(Cl)C(Cl)=C2Cl)cc1 , assay on MDA-MB-468 breast, is 3.35 µM

Value sought: TGI, system MDA-MB-468 breast, item O=c1n(CC2CO2)c(=O)n(CC2CO2)c(=O)n1CC1CO1 (centres undefined) . Result: 11.3 µM

Record CCN1CCN(c2ccc(Nc3cc(N(C)C(=O)Nc4c(Cl)c(OC)cc(OC)c4Cl)ncn3)cc2)CC1 ; system MDA-MB-468 breast; TGI = 11.7 µM

The compound COc1ncnc(C2CC2)c1-c1ncc2cnn(Cc3ccc(-c4nc(C(F)(F)F)cn4C(C)C)cc3)c2n1 , when measured on MDA-MB-468 breast, yielded TGI of 38.3 µM

// TGI (MDA-MB-468 breast) for C[C@H]1c2cccc(O)c2C(O)=C2C(=O)[C@]3(O)C(O)=C(C(N)=O)C(=O)[C@@H](N(C)C)[C@@H]3[C@@H](O)[C@@H]21 = 6.44 µM
